System: CCRF-CEM leukemia
Procedure details: NCI tumour cell line growth inhibition, 48 h
Assign TGI to each entry below.

Example molecules with recorded TGI:
* NC(Cc1ccc(O)c(O)c1)P(=O)(O)O (stereo unspecified) | 68.6 µM
* COC(=O)[C@@]12C(=O)CCC(=O)C1C1C(=CC2C)O[C@@H]2OC3(CCCCC3)O[C@H]12 (stereo partly specified) | > 81 µM
* CC(=O)N1C(Nc2ccccc2)CCN1c1ccccc1 (stereo unspecified) | > 10 µM
* CCNCC(O)COc1ccc2c(c1)[n+]([O-])nc(N)[n+]2[O-] (stereo unspecified) | > 100 µM
* CCCc1cn2c(/C=N/N=C(N)N)c(-c3c(OC)ccc(OC)c3[N+](=O)[O-])nc2s1 | 8.43 µM

Count: 7. Required value per item: TGI.
1. O=C1NC(=NCc2ccccc2Br)S/C1=C\c1ccc2ncccc2c1
2. C=CCN1C(N)=C(C#N)C(C#N)(C#N)C1CCC (stereo unspecified)
3. CCn1c(-c2nonc2N)nc2c(C#CC(C)(C)O)nc(CN3CCCC3)cc21
4. O=C(Nc1ccc2[nH]c3c(-c4ccccc4)nccc3c2c1)c1ccccc1[N+](=O)[O-]
5. CCOC(=O)Nc1cc(NC(/C=N/NC(C)=O)C(=O)OCC)c(OC)cc1NC(C)=O (stereo unspecified)
6. O=C(CC(=O)N1N=C(N2c3ccccc3Sc3ccccc32)CC1c1ccccc1)Nc1ccccc1Cl (stereo unspecified)
7. COc1ccccc1-c1cc(=O)c2c(C)ccnc2[nH]1

1: > 25 µM; 2: > 100 µM; 3: > 25 µM; 4: > 100 µM; 5: > 100 µM; 6: > 100 µM; 7: > 100 µM

For each entry beneath this line, provide reported TGI.
1. COc1ccc(C(=O)NCCC2=CCCCC2)cc1
2. COc1ccc2c(c1)CCc1c(C(C)=O)c3ccccc3n1C2
3. COc1cccc2c1C(=O)c1c(O)c3c(c(O)c1C2=O)C[C@@](O)(C(C)=O)C[C@@H]3O[C@H]1C[C@H](N)[C@H](O)[C@H](C)O1
4. COc1ccc(C2SCc3nc4ccccc4n32)cc1 (stereo unspecified)
5. CCN(CC)c1ccc(/C=N/NC(=O)c2ccc(S(C)(=O)=O)cc2)c(O)c1
6. N#Cc1c2c(c(Nc3ccc(F)cc3)n3c1nc1ccccc13)CCCC2

["> 100 µM", "> 100 µM", "0.293 µM", "> 100 µM", "> 100 µM", "> 100 µM"]

Okay, here is my list. What is TGI for each of these?
1. CC(C)C1(Cl)CCC2C3(C)CCCC(C)(C(=O)O)C3CC(Cl)C2(Cl)C1Cl (stereo unspecified)
2. CC(=O)CC(=O)Nc1ccccc1[N+](=O)[O-]
3. OC/C=C/[C@H](OCc1ccccc1)[C@H](/C=C/CO)OCc1ccccc1
4. Cc1ccc(NC(=O)/C=C/c2ccccc2)c(C)c1

1. > 100 µM
2. > 100 µM
3. 51.4 µM
4. > 100 µM

Report TGI for each item below.
1. COc1ccc(C(=O)O)c(Br)c1OCc1ccccc1
2. CS(=O)(=O)CCN(CC#N)Cc1ccc(-c2ccc3ncnc(Nc4ccc(OCc5cccc(F)c5)c(Cl)c4)c3c2)o1

1: > 100 µM; 2: > 25 µM

Quick request: TGI for each listed item, please.
1. CCCCCCN1C(=O)CC(=O)N(CCCCCC)S1(=O)=O
2. CN=c1ss/c(=N\C(=S)N(C)C)n1-c1ccccc1

["40.9 µM", "> 100 µM"]
